System: plasma protein
Test: Plasma protein binding rate test by equilibrium dialysis method, mouse plasma
Assay type: in vitro ADME
Conditions: 5 μM, equilibrium dialysis 4 hours at 37° C.
Experimental: Plasma protein binding rates of the compounds were determined by equilibrium dialysis method (W. Lindner et al, J. Chromatography, 1996, 677, 1-28). Each test compound was dissolved in distilled water at concentration of 200 μM. […] After 4 hours, samples of plasma and the buffer were collected, and the fluorescence intensity of each was measured by EnVision (GE Corporation). […]
RECORDED_ENDPOINT: Plasma protein binding rate (%) mouse
Numbers only; they are read as %.

input: What value of Plasma protein binding rate (%) mouse has been reported for the following compound? CC1(C)C(/C=C/C=C/C=C/C=C2/N(CCCP(=O)(O)O)c3ccc(S(=O)(=O)O)cc3C2(C)C)=[N+](CCCP(=O)(O)O)c2ccc(S(=O)(=O)O)cc21.[Na+].[Na+].[Na+].[Na+].[Na+].[Na+] [Compound 10]
output: 53

input: Subsequent entry: CC1(C)C(/C=C/C=C(/C=C/C=C2\N(CCCP(=O)([O-])[O-])c3ccc(S(=O)(=O)[O-])cc3C2(C)C)c2ccccc2)=[N+](CCCP(=O)([O-])[O-])c2ccc(S(=O)(=O)[O-])cc21.[Na+].[Na+].[Na+].[Na+].[Na+] [Compound 12]
output: 91

input: Subsequent entry: CC1(C)C(/C=C/C=C/C=C/C=C2\N(CC(=O)O)c3ccc(S(=O)(=O)[O-])cc3C2(C)C)=[N+](CC(=O)O)c2ccc(S(=O)(=O)[O-])cc21.[Na+] [Compound 4]
output: 57

input: Subsequent entry: CC1(C)C(/C=C/C=C(/C=C/C=C2\N(CCP(=O)([O-])[O-])c3ccc(S(=O)(=O)[O-])cc3C2(C)C)c2ccccc2)=[N+](CCP(=O)([O-])[O-])c2ccc(S(=O)(=O)[O-])cc21.[Na+].[Na+].[Na+].[Na+].[Na+] [Compound 11]
output: 91

###

Tested on: plasma protein
Test: Plasma protein binding rate test by equilibrium dialysis method, rabbit plasma
Format: in vitro ADME
Conditions: 5 μM, equilibrium dialysis 4 hours at 37° C.
RECORDED_ENDPOINT: Plasma protein binding rate (%) rabbit
Numbers only; they are read as %.

input: What value of Plasma protein binding rate (%) rabbit has been reported for the following compound? CC1(C)C(/C=C/C=C/C=C/C=C2/N(CCS(=O)(=O)[O-])c3ccc(P(=O)([O-])[O-])cc3C2(C)C)=[N+](CCS(=O)(=O)[O-])c2ccc(P(=O)([O-])[O-])cc21.[Na+].[Na+].[Na+].[Na+].[Na+] [Compound 14]
output: 87

input: Subsequent entry: CC1(C)C(/C=C/C=C/C=C/C=C2/N(CCC(=O)[O-])c3ccc(P(=O)([O-])[O-])cc3C2(C)C)=[N+](CCC(=O)[O-])c2ccc(P(=O)([O-])[O-])cc21.[Na+].[Na+].[Na+].[Na+].[Na+] [Compound 13]
output: 87

###

System: plasma protein
Assay: Plasma protein binding rate test by equilibrium dialysis method, human plasma
Assay type: in vitro ADME
Settings: 5 μM, equilibrium dialysis 4 hours at 37° C.
RECORDED_ENDPOINT: Plasma protein binding rate (%) human
Numbers only; they are read as %.

input: Observed Plasma protein binding rate (%) human on plasma protein for CC1(C)C(/C=C/C=C/C=C/C=C2/N(CCC(=O)[O-])c3ccc(P(=O)([O-])[O-])cc3C2(C)C)=[N+](CCC(=O)[O-])c2ccc(P(=O)([O-])[O-])cc21.[Na+].[Na+].[Na+].[Na+].[Na+] [Compound 13] , please.
output: 89

input: Subsequent entry: CC1(C)C(/C=C/C=C(/C=C/C=C2\N(CCCP(=O)([O-])[O-])c3ccc(S(=O)(=O)[O-])cc3C2(C)C)c2ccccc2)=[N+](CCCP(=O)([O-])[O-])c2ccc(S(=O)(=O)[O-])cc21.[Na+].[Na+].[Na+].[Na+].[Na+] [Compound 12]
output: 95
